Tested on: HCT-116 colon
experiment description: NCI tumour cell line growth inhibition, 48 h
metric: TGI

Lookup: Given the compound "Brc1ccc2c([C@H]3CN[C@@H](c4c[nH]c5cc(Br)ccc45)CN3)c[nH]c2c1" , what is its reported TGI?
Found: 3.03 µM

Lookup: What does the data say about its TGI? Entry: "O=C1/C(=C/c2ccc(Cl)cc2)N=C(c2ccccc2)N1CCc1cccs1"
Found: > 100 µM

Lookup: So what does the record say about TGI for O=C(Cc1nccc2c1[nH]c1ccccc12)OC1C#CCSCC#C/C=C\1 (configuration not stated) ?
Found: > 100 µM

Lookup: Reported TGI for C[C@]1(CO)CCC[C@@]2(C)C1CC[C@H]1CC3C[C@]12CC[C@]3(C)O (some centres not stated) : what is it?
Found: > 100 µM

Lookup: Form field: reported TGI of Cc1ccc(OC2CC(n3cnc4ncnc(Cl)c43)OC2Oc2ccc(C)cc2)cc1 (configuration not stated)
Found: > 100 µM

Lookup: Query (compound): CC(C)C(C)C(C)(C)P(C)(C)=O (configuration not stated) ; field requested: TGI
Found: > 100 µM

Lookup: Suppose we examine the compound "CN(CC(=O)N(Cc1ccc(C2CCCCC2)cc1)c1ccc(C(=O)O)c(O)c1)S(=O)(=O)c1c(F)c(F)c(F)c(F)c1F" ; what TGI value has been reported?
Found: 11.9 µM

Lookup: Need TGI of "COc1cc2c3c(n(CCCI)c(=O)c2cc1OC)-c1cc2c(cc1C3=O)OCO2" , thanks.
Found: > 100 µM

Lookup: Requested field: TGI. Item: "COc1cc(O)c(C(=O)/C=C/c2ccc(O)cc2)c(O)c1[C@@H]1C[C@H](CCc2ccc(O)cc2)O[C@H](c2ccc(O)cc2)C1"
Found: 11.1 µM

Lookup: Give the measured TGI of O=C(CCC(=O)C(C(=O)c1ccccc1)c1ccccc1)Nc1cccc(C(F)(F)F)c1 (configuration not stated) .
Found: > 100 µM

Lookup: What measured TGI goes with "CCSc1cc(=O)n(C)c(=O)n1C" ?
Found: > 100 µM

Lookup: What TGI value was documented for this compound, COc1cc2c3c(c1OC)-c1c(ccc4c1OCO4)CC3(C#N)N(C(=O)c1ccccc1)CC2 (configuration not stated) ?
Found: > 100 µM

Lookup: Value lookup for TGI; key = COc1cc(OC)c(C2CC=Cc3c(OC)cc(OC)c(OC)c32)cc1OC (configuration not stated)
Found: > 100 µM

Lookup: I'd like to know its TGI. The compound in question is "COc1ccc(-c2nc3ccccn3c2/C=C/C(=O)c2cc(OC)c(OC)c(OC)c2)cc1"
Found: 11.1 µM

Lookup: Given the compound Fc1ccc2nc3n(c2c1)C(c1c(Cl)cccc1Cl)SC3 (configuration not stated) , what is its reported TGI?
Found: > 100 µM

Lookup: Value lookup for TGI; key = "CSCCCNC(=O)c1csc(-c2csc(C(CNC(=O)OC(C)(C)C)CNC(=O)OC(C)(C)C)n2)n1"
Found: > 100 µM

Lookup: Endpoint output: TGI of CCC1CCc2nc3sc(C(=O)Nc4cccc(F)c4)c(N)c3cc2C1 (configuration not stated) . Value?
Found: > 100 µM

Lookup: For the compound "CCCCNC(=S)Nc1nc(C(=O)NNC(=S)NC2CCCCC2)cs1" , what TGI is on record?
Found: > 100 µM

Lookup: Recorded TGI of "Cc1c2cnccc2c(C)c2c1c1ccccc1n2CCCCCCNCc1ccccc1" , please.
Found: 1.92 µM

Lookup: Recorded TGI of "Nc1nc(-c2ccc(F)cc2)c(-c2ccc3ncccc3n2)s1" , please.
Found: > 25 µM

Lookup: Would you mind telling me what TGI value was observed for "CN(C)c1nncc2[nH]cnc12" ?
Found: > 100 µM

Lookup: // query TGI value for entry "O=c1[nH]c(Nc2cc(Cl)cc(Cl)c2)nc2nc[nH]c12"
Found: > 75 µM

---

Give measured TGI for each item. Keep answers brief.
Test system: K-562 leukemia
experiment description: NCI tumour cell line growth inhibition, 48 h

Lookup: Form field: reported TGI of "CCOC(=O)c1ccc(C(=O)/C(C(C)=O)=C2\CCCN2C)n1C"
Found: > 100 µM

Lookup: Requested read-out: TGI. Entry: "COC1(OC)CC(CO)(CNc2cc(Cl)nc(N)n2)C1"
Found: > 100 µM

Lookup: For the compound shown here, "CCN1CCN(c2nc3ccc([N+](=O)[O-])cc3nc2C(=O)c2ccccc2)CC1" , give the reported TGI.
Found: > 100 µM

Lookup: Reported TGI for "O=C1CCC(=O)N1n1c(Cc2ccc(Cl)cc2)n[nH]c1=O" : what is it?
Found: > 100 µM

Lookup: If you can, please state the reported TGI value of NC1CC2NC3CCCCC3NC2CC1N (centres undefined) .
Found: > 100 µM

Lookup: What measured TGI goes with "CCc1cccc(C(C)C)c1N1C(=O)C(=O)C(c2nc3ccccc3s2)C(=O)C1=O" ?
Found: > 50 µM

Lookup: Fill in: TGI of "NC(=O)c1cc(-c2ccc(F)cc2)cc(-c2ccncc2)c1N" is ___
Found: > 25 µM

Lookup: Fill in: TGI of "CCc1ccc2nc(-c3ccc(O)cc3)sc2c1" is ___
Found: 54.5 µM

Lookup: Would you kindly share the measured TGI for "COc1ccc2sc(-n3nc4ccccc4c3Nc3nc4ccc(OC)cc4s3)nc2c1" ?
Found: > 38.9 µM

Lookup: TGI for "COc1cc(/C=C/C(=O)c2c(C)nc3ccccc3c2C)ccc1OCCCOc1cc2c(cc1OC)C(=O)N1CCC[C@H]1C=N2" ?
Found: 0.0346 µM

Lookup: For the compound CC1C[C@@H]2C(=O)NC(=O)[C@@H]2c2c1c1ccccc1n2C (some centres undefined) , what TGI is on record?
Found: > 100 µM

Lookup: What measured TGI goes with "N#C/C(=C\c1cc(Cl)cc(Cl)c1)c1ccccn1" ?
Found: > 100 µM

Lookup: Requested read-out: TGI. Entry: "O=c1[nH]c(Nc2cc(Cl)cc(Cl)c2)nc2nc[nH]c12"
Found: > 75 µM

Lookup: Sample "CC(C)CCN=C(N)c1ccc(N2CCN(c3ccc(C(N)=NCCC(C)C)cc3)CC2)cc1" — what was its TGI?
Found: > 100 µM

Lookup: Could you tell me which TGI is on file for "COc1cc(C2=C(C#Cc3ccccc3)COC2=O)cc(OC)c1OC" ?
Found: > 100 µM

Lookup: Fill in: TGI of "CCCCN1C(=O)c2c(-c3sccc3N)sc(-c3sccc3N)c2C1=O" is ___
Found: > 100 µM

Lookup: Record request: TGI value, item c1ccc2c(c1)ncn2C1CCCCO1 (centres undefined)
Found: > 100 µM

Lookup: Using the record for CCc1cccc(C(C)C)c1NC(=O)C(=O)C(CC(=O)Nc1ccc(Cl)c(Cl)c1)C(=O)OC (centres undefined) , report its TGI.
Found: > 100 µM

Lookup: Returns the measured TGI for the input compound. Input: "CC(=O)N(O)[C@@H]1CC[C@H](n2cnc3c(N)ncnc32)C1"
Found: > 100 µM

Lookup: Quick check: TGI of CCC(=O)c1c(NOC2OC(COC(C)=O)C(OC(C)=O)C(OC(C)=O)C2OC(C)=O)nc(OC)n(C)c1=O (centres undefined) ?
Found: > 100 µM

Lookup: I am curious: what TGI value has been reported for "CC1(C)[C@@H](O[C@@H]2OC[C@@H](O[C@@H]3O[C@H](CO)[C@@H](O)[C@H](O)[C@H]3O[C@@H]3OC[C@@H](O)[C@H](O)[C@H]3O)[C@H](O)[C@H]2O[C@@H]2O[C@H](CO)[C@@H](O)[C@H](O)[C@H]2O)CC[C@]2(C)[C@H]3CC[C@]45OC[C@@]6(CC[C@](C)(C=O)C[C@H]64)[C@H](O)C[C@@]5(C)[C@]3(C)CC[C@@H]12" ?
Found: 5.51 µM

Lookup: Name the recorded TGI for "NCCCNC1(c2cc3ccccc3s2)CCCCC1" .
Found: 5.38 µM

Lookup: Please give the measured TGI for this compound: "CCCCCCOP(=O)(OCCCCCC)C(NC(=O)OCC)(C(F)(F)F)C(F)(F)F"
Found: > 100 µM

Lookup: Tell me the measured TGI of "Cc1cc(Cl)ccc1NC(=O)c1cc2ccccc2cc1O" , please.
Found: > 100 µM

Lookup: Record request: TGI value, item "CSc1ccc(NC(=S)NN(C)C)cc1"
Found: > 10 µM

Lookup: Look at this compound and give its reported TGI. "COc1ccc(/C(C#N)=C/c2ccc(OC)c(OC)c2)cc1"
Found: > 100 µM

Lookup: Give its TGI value. Item: "N#CCCN(CCC#N)c1ccc(/C=C2\N=C(c3ccccc3)N(NC(N)=S)C2=O)cc1"
Found: > 100 µM

Lookup: Quick check: TGI of "O=[N+]([O-])c1cccc(-c2oc(C=Nc3ccccc3)c([N+](=O)[O-])c2-c2cccc([N+](=O)[O-])c2)c1" ?
Found: > 100 µM

Lookup: Could you share which TGI value was measured for CC1OC2(CC(OCc3ccccc3)C1OCc1ccccc1)OCCO2 (centres undefined) ?
Found: > 100 µM
